# Test system: CHD5 (PCC)
# experimentalProtocol: Histone peptide microarray
# Format: binding, human
# testConditions: CHD5 (PCC), GST-tagged; arrays performed twice, n of 4
Where no end group is shown, it is not given here. [ ]: non-standard residue; d: D form. Arg(Me2a) = CN(C)C(=N)NCCC[C@H](N)C(=O)O; pS = N[C@@H](COP(=O)(O)O)C(=O)O
Here, each record is paired with measured Array Heatmap value (peptide array binding signal) data.

Asked: Find Array Heatmap value (peptide array binding signal) (CHD5 (PCC)) for the entry Myc-Tag: 1-10 (ILKKATAYIL; Myc epitope tag; UniProt P01106 410-419, looked up, fragment)
Given back: 0.7878

Asked: Find Array Heatmap value (peptide array binding signal) (CHD5 (PCC)) for the entry H2A.Z K4ac + K8ac + K12ac (1-19) (N-ac): H2AZ 1-19 (Ac-AGGKAGKDSGKAKTKAVSR; not fully specified (residue 4); UniProt P0C0S5 2-20, looked up, fragment)
Given back: 0.8638

Asked: Find Array Heatmap value (peptide array binding signal) (CHD5 (PCC)) for the entry H2AX (132-142): H2AX 132-142 (GKKATQASQEY; UniProt P16104 133-143, looked up, fragment)
Given back: 0.733

Asked: Find Array Heatmap value (peptide array binding signal) (CHD5 (PCC)) for the entry H2AS1p + R3me2a + K5ac: H2A 1-17 ([pS]G[Arg(Me2a)]GK(Ac)QGGKARAKAKTR; UniProt P0C0S8 2-18, looked up, fragment)
Given back: 0.8457

Asked: Find Array Heatmap value (peptide array binding signal) (CHD5 (PCC)) for the entry H2AS1p + K5ac: H2A 1-17 ([pS]GRGK(Ac)QGGKARAKAKTR; UniProt P0C0S8 2-18, looked up, fragment)
Given back: 0.6294

Asked: Find Array Heatmap value (peptide array binding signal) (CHD5 (PCC)) for the entry H2AR3me2a + K5ac: H2A 1-17 (SG[Arg(Me2a)]GK(Ac)QGGKARAKAKTR; UniProt P0C0S8 2-18, looked up, fragment)
Given back: 0.7634

====

Here, each record is paired with measured Array Heatmap value (peptide array binding signal) data.
# Test system: ING5
# experimentalProtocol: Histone peptide microarray
# Assay type: binding, human
# testConditions: ING5, GST-tagged; arrays performed twice, n of 4
Where no end group is shown, it is not given here. [ ]: non-standard residue; d: D form. Arg(Me2a) = CN(C)C(=N)NCCC[C@H](N)C(=O)O; pS = N[C@@H](COP(=O)(O)O)C(=O)O
In your answer, state the number alone without any accompanying words.

Below, 6 substances whose answers are already recorded.
H2A.Z (1-19): H2AZ 1-19 (AGGKAGKDSGKAKTKAVSR; UniProt P0C0S5 2-20, looked up, fragment) ... 0.4264
H2A.Z K4ac + K8ac + K12ac (1-19) (N-ac): H2AZ 1-19 (Ac-AGGKAGKDSGKAKTKAVSR; not fully specified (residue 4); UniProt P0C0S5 2-20, looked up, fragment) ... 0.4262
H2AR3me2a + K5ac: H2A 1-17 (SG[Arg(Me2a)]GK(Ac)QGGKARAKAKTR; UniProt P0C0S8 2-18, looked up, fragment) ... 0.3401
H2AX (132-142): H2AX 132-142 (GKKATQASQEY; UniProt P16104 133-143, looked up, fragment) ... 0.3322
H2A.Z (1-19) (N-ac): H2AZ 1-19 (Ac-AGGKAGKDSGKAKTKAVSR; UniProt P0C0S5 2-20, looked up, fragment) ... 0.2996
H2AS1p + R3me2a + K5ac: H2A 1-17 ([pS]G[Arg(Me2a)]GK(Ac)QGGKARAKAKTR; UniProt P0C0S8 2-18, looked up, fragment) ... 0.4136

Asked: Give its Array Heatmap value (peptide array binding signal) value. Item: H4K12ac + KQ5,8,16,20: H4 1-23 (SGRGQGGQGLGK(Ac)GGAQRHRQVLR; UniProt P62805 2-24, looked up, variant K5Q K8Q K16Q K20Q)
Given back: 0.347

Asked: Give its Array Heatmap value (peptide array binding signal) value. Item: H2AS1p + K5ac: H2A 1-17 ([pS]GRGK(Ac)QGGKARAKAKTR; UniProt P0C0S8 2-18, looked up, fragment)
Given back: 0.2521

Asked: Give its Array Heatmap value (peptide array binding signal) value. Item: H2AX (S139p): H2AX 132-142 (GKKATQA[pS]QEY; UniProt P16104 133-143, looked up, fragment)
Given back: 0.3847

Asked: Give its Array Heatmap value (peptide array binding signal) value. Item: Myc-Tag: 1-10 (ILKKATAYIL; Myc epitope tag; UniProt P01106 410-419, looked up, fragment)
Given back: 0.3459
